- assay.target: rat brain farnesyl:protein transferase (rat, UniProt Q04631 2-377; Q02293 1-437)
- experimental.protocol: cell-based or functional assay
Reported concentration giving 50% inhibition values for a set of binders
Quick note: number first, unit second.

Known results for binders:
>>> measured("CKIM")
"0.7 µM"
>>> measured("CPIM")
"8 µM"

Lookup: Please look at this binder and report its concentration giving 50% inhibition: CVIF
Found: 0.5 µM

Lookup: Please look at this binder and report its concentration giving 50% inhibition: CGIM
Found: 4 µM
